- Tested on: human umbilical vein endothelial cells (HUVEC)
- MEASUREMENT NOTES: HUVEC proliferation assay
- Format: cell-based
- COND: Homo sapiens, HUVEC, Table 3
Structures can show the parent of a compound that is named as a salt.
MEASUREMENT TYPE: IC50 (µM)
// return numeric value only (unit: µM, not printed)

Q) Give a short answer stating reported IC50 for `COc1cc(Nc2nc(N)c(-c3nc(-c4cc(N)ccc4Cl)no3)s2)cc(OC)c1OC` .
A) 0.3

Q) Consider the compound `COc1cc(Nc2nc(N)c(-c3nc(-c4cc(NC(=O)c5cccc(Cl)c5)c(F)cc4F)no3)s2)cc(OC)c1OC` . State its measured IC50.
A) 0.0042

Q) Determine its reported IC50: `COc1cc(Nc2nc(N)c(-c3nc(-c4cc(NC(=O)c5cccc(Cl)c5)ccc4C)no3)s2)cc(OC)c1OC`
A) 0.0078

Q) Identify measured IC50 associated with `COc1cccc(C(=O)Nc2cc(-c3noc(-c4sc(Nc5ccc(N6CCOCC6)nc5)nc4N)n3)c(F)cc2F)c1`
A) 0.01

Q) Annotate the compound `COc1cccc(C(=O)Nc2cc(-c3csc(-c4sc(NC(=O)NCc5ccccc5)nc4N)n3)c(F)cc2F)c1` with its measured IC50.
A) 0.14

Q) Given the compound `COc1cccc(C(=O)Nc2cc(-c3noc(-c4sc(NC(=O)NCc5cccnc5)nc4N)n3)c(F)cc2F)c1` , write its reported IC50.
A) 0.0043

Q) Given `COc1cc(Nc2nc(N)c(-c3nc(-c4cc(N)c(F)cc4Cl)no3)s2)cc(OC)c1OC` , respond with its IC50.
A) 0.3

Q) Respond only with IC50 recorded for `COc1cc(Nc2nc(N)c(-c3nc(-c4cc(N)ccc4C)no3)s2)cc(OC)c1OC`
A) 0.3

Q) Determine from records and report IC50 for `Cc1cccc(C(=O)Nc2cccc(-c3noc(-c4sc(NC(=O)NCc5ccccc5)nc4N)n3)c2)c1`
A) 0.15

Q) Input `COc1cc(Nc2nc(N)c(-c3nc(-c4cc(NC(=O)OC(C)(C)C)c(F)cc4F)no3)s2)cc(OC)c1OC` , output reported IC50.
A) 0.3

Q) Supply measured IC50 of `Cc1cccc(C(=O)Nc2cccc(-c3noc(-c4sc(NC(=O)NCCCN5CCOCC5)nc4N)n3)c2)c1` in your reply.
A) 0.045

Q) Supply recorded IC50 for `CNC(=O)Nc1nc(N)c(-c2nc(-c3cc(NC(=O)c4cccc(OC)c4)c(F)cc3F)no2)s1` here.
A) 0.00064

Q) Indicate the recorded IC50 value for this compound: `COc1cccc(C(=O)Nc2cc(-c3noc(-c4sc(NC(=O)N[C@H]5CC[C@H](O)CC5)nc4N)n3)c(F)cc2F)c1`
A) 0.014

Q) Please supply the value of reported IC50 for the item COc1cccc(C(=O)Nc2cc(-c3noc(-c4sc(Nc5cc(OC)c(OC)c(OC)c5)nc4N)n3)c(Cl)cc2F)c1 [D(70), TFA salt]
A) 0.0054

Q) Item `COc1cccc(C(=O)Nc2cc(-c3noc(-c4sc(NC(=O)NCCO)nc4N)n3)c(F)cc2F)c1` : provide IC50
A) 0.0067

Q) Input `CNC(=O)Nc1nc(N)c(-c2nc(-c3cccc(NC(=O)c4cccc(Cl)c4)c3)cs2)s1` , output reported IC50.
A) 0.0085

Q) Please look at this compound and report its IC50: `COc1cccc(C(=O)Nc2cc(-c3noc(-c4sc(Nc5cc(OC)c(OC)c(OC)c5)nc4N)n3)c(F)cc2F)c1`
A) 0.0041

Q) Give the value of IC50 reported for the following: `CNC(=O)Nc1nc(N)c(-c2nc(-c3cccc(NC(=O)c4cccc(OC)c4)c3)cs2)s1`
A) 0.012

Q) Report IC50, nothing else, for this compound: `COc1cc(Nc2nc(N)c(-c3nc(-c4cc(NC(=O)c5cccc(Cl)c5)c(F)cc4Cl)no3)s2)cc(OC)c1OC`
A) 0.015

Q) Note down IC50 recorded for `COc1cccc(C(=O)Nc2ccc(Cl)c(-c3noc(-c4sc(Nc5cc(OC)c(OC)c(OC)c5)nc4N)n3)c2)c1`
A) 0.0043

Q) Tell me IC50 reported for `CNc1nc(N)c(-c2nc(-c3cc(NC(=O)c4cccc(OC)c4)ccc3C)no2)s1`
A) 0.063

Q) Supply measured IC50 of `COc1cccc(C(=O)Nc2ccc(C)c(-c3noc(-c4sc(Nc5cc(OC)c(OC)c(OC)c5)nc4N)n3)c2)c1` in your reply.
A) 0.0052

Q) Look up and state reported IC50 for `C#CCCCC(=O)Nc1cccc(-c2noc(-c3sc(Nc4cc(OC)c(OC)c(OC)c4)nc3N)n2)c1`
A) 0.5

---

Task for the reader: assign each of the following compounds its reported inhibition at 20 µM.
- ASSAYED SYSTEM: FL-CHK1 (Homo sapiens)
- Construct: C-terminally His-tagged full-length human CHK1 (FL-CHK1); 6xHis (C); made in house; host or cells: baculovirus/insect cells
- Sequence (O14757 1-476): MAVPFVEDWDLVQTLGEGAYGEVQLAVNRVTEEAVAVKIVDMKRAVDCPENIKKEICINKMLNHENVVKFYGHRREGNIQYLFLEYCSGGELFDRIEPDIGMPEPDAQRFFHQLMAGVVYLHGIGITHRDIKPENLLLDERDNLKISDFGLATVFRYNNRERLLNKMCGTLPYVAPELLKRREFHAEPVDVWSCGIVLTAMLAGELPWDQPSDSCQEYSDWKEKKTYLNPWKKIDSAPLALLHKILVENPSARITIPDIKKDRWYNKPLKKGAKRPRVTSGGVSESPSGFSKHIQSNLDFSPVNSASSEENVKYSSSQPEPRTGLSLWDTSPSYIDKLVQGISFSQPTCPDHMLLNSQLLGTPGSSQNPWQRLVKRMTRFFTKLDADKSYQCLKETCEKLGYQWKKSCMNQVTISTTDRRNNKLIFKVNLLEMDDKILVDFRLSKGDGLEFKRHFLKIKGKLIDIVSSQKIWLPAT
- MEASUREMENT NOTES: CHK1 assay
- Assay type: biochemical
- COND: 20 μM; combinatorial library compounds
Dear colleague, please return just the value in %, with no unit written.

Q) Identify inhibition at 20 µM associated with the compound `Nc1nc(Nc2ccc(S(N)(=O)=O)cc2)sc1-c1nc(-c2c(Cl)c(Cl)nc(Cl)c2Cl)cs1`
A) 19.8

Q) Indicate its recorded inhibition at 20 µM; the compound in question is `CN(C)c1ccc(Nc2nc(N)c(-c3nc(-c4ccc(O)cc4)cs3)s2)cc1`
A) 47.1

Q) For the compound `CN(C)c1ccc(Nc2nc(N)c(-c3nc(-c4cc(C(C)(C)C)c(O)c(C(C)(C)C)c4)cs3)s2)cc1` , report inhibition at 20 µM.
A) 37.1

Q) Identify the reported inhibition at 20 µM for the following entry. `CCN(CC)c1ccc(-c2csc(-c3sc(Nc4ccc(N(C)C)cc4)nc3N)n2)cc1`
A) 17.4

Q) Give inhibition at 20 µM for `CC(C)c1ccc(Nc2nc(N)c(-c3nc(-c4cc(-c5ccc(Cl)c(Cl)c5)no4)cs3)s2)cc1`
A) -9

---

- ASSAYED SYSTEM: CDK4/Cyclin D3 complex (Homo sapiens, UniProt P11802)
- Construct: made in house; host or cells: insect cells co-infected with baculovirus vectors
- Sequence (P11802 whole entry): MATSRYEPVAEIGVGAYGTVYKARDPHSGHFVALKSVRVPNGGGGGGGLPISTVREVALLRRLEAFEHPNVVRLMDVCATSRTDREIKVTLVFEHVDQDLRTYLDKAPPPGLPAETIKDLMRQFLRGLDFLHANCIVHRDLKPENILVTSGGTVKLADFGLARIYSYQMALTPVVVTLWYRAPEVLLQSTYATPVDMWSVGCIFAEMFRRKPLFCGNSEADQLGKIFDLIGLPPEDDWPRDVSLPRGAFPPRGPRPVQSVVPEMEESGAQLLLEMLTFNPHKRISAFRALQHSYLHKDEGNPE
- Sequence (P30281 whole entry partner): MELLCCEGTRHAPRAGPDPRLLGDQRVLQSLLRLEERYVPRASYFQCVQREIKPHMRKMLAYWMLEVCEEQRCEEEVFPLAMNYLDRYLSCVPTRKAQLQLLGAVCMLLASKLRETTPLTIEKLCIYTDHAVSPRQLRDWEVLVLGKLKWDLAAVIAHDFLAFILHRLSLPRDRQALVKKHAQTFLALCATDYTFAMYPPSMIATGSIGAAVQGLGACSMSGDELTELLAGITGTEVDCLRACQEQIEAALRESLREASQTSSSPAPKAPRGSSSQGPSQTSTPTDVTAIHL
- MEASUREMENT NOTES: CDK4/Cyclin D assay
- Assay type: biochemical
- COND: 1.0 μM; combinatorial library compounds
Rule: inhibition at 1 µM under 50% gives label 0, otherwise label 1.

Q) Reported inhibition at 1 µM reaches at least 50% for Nc1nc(Nc2ccc(S(N)(=O)=O)cc2)sc1-c1nc(-c2ccc(-c3ccccc3)cc2)cs1 [drawing 404] ?
A) label 0

Q) Reported inhibition at 1 µM reaches at least 50% for `Cc1cc(-c2csc(-c3sc(Nc4ccc(N(C)C)cc4)nc3N)n2)c(C)s1` ?
A) label 1

Q) Confirm if inhibition at 1 µM reported for the compound `Nc1nc(Nc2ccc(S(N)(=O)=O)cc2)sc1-c1nc(-c2ccc(-c3ccc(Cl)cc3Cl)o2)cs1` is 50% or above.
A) label 0

Q) Tell me whether inhibition at 1 µM is at least 50% here: Nc1nc(Nc2ccc(S(N)(=O)=O)cc2)sc1-c1nc(C2C=C([N+](=O)[O-])C=CC2)cs1 (stereo not drawn)
A) label 0

Q) Hi, just wondering whether `Nc1nc(Nc2ccc(S(N)(=O)=O)cc2)sc1-c1nc(-c2ccc3oc4ccccc4c3c2)cs1` shows inhibition at 1 µM of 50% or higher.
A) label 1

Q) Kindly determine if inhibition at 1 µM recorded for COc1ccc(-c2csc(-c3sc(Nc4ccc(C(C)C)cc4)nc3N)n2)cc1 [drawing 462] is above or exactly 50%.
A) label 1

Q) Kindly determine if inhibition at 1 µM recorded for `CC(C)c1ccc(Nc2nc(N)c(-c3nc(-c4ccc(O)cc4)cs3)s2)cc1` is above or exactly 50%.
A) label 1

Q) // inclusive: inhibition at 1 µM at least 50%? input: `CN(C)c1ccc(Nc2nc(N)c(-c3nc(-c4cc(C(=O)C(Cl)(Cl)Cl)n(C)c4)cs3)s2)cc1`
A) label 0

Q) Record `CN(C)c1ccc(Nc2nc(N)c(-c3nc(-c4ccc(F)cc4F)cs3)s2)cc1` ; criterion: inhibition at 1 µM no lower than 50%. Met?
A) label 1

Q) Does the reported inhibition at 1 µM for `COc1ccc(-c2csc(-c3sc(Nc4ccc(S(N)(=O)=O)cc4)nc3N)n2)c(OC)c1` fall at or above the 50% mark?
A) label 0

Q) Is reported inhibition at 1 µM greater than or equal to 50% here: `CCOC(=O)c1cc(-c2csc(-c3sc(Nc4ccc(N(C)C)cc4)nc3N)n2)on1`
A) label 0

Q) Tell me whether inhibition at 1 µM is at least 50% here: `Nc1nc(Nc2ccc(S(N)(=O)=O)cc2)sc1-c1nc(-c2ccccc2OC(=O)c2ccccc2)cs1`
A) label 0

Q) Kindly determine if inhibition at 1 µM recorded for `CC(C)c1ccc(Nc2nc(N)c(-c3nc(-c4csc5ccccc45)cs3)s2)cc1` is above or exactly 50%.
A) label 1

Q) Quick check: does `Cc1c(-c2csc(-c3sc(Nc4ccc(S(N)(=O)=O)cc4)nc3N)n2)sc2ccccc12` have inhibition at 1 µM greater than or equal to 50%?
A) label 0

Q) Please tell me: is the compound `Cc1ccc(-c2csc(-c3sc(Nc4ccc(S(N)(=O)=O)cc4)nc3N)n2)c(C)c1` at or over 50% in terms of inhibition at 1 µM?
A) label 0

Q) Form field: inhibition at 1 µM at least 50%? Entry: `CN(C)c1ccc(Nc2nc(N)c(-c3nc(-c4csc5ccccc45)cs3)s2)cc1`
A) label 1

Q) Record `Cc1c(C)c(C)c(-c2csc(-c3sc(Nc4ccc(N(C)C)cc4)nc3N)n2)c(C)c1C` ; criterion: inhibition at 1 µM no lower than 50%. Met?
A) label 1

Q) Exam item: decide whether the reported inhibition at 1 µM for `CC(C)c1ccc(Nc2nc(N)c(-c3nc(-c4ccc(-c5ccccc5)cc4)cs3)s2)cc1` is at least 50%.
A) label 0

Q) Assess whether reported inhibition at 1 µM for `CC(C)c1ccc(Nc2nc(N)c(-c3nc(-c4ccccc4[N+](=O)[O-])cs3)s2)cc1` sits at 50% or higher.
A) label 1

Q) Exam item: decide whether the reported inhibition at 1 µM for `COc1ccc2nc(-c3ccccc3)c(-c3csc(-c4sc(Nc5ccc(S(N)(=O)=O)cc5)nc4N)n3)cc2c1` is at least 50%.
A) label 1

Q) API: above_or_equal(metric=inhibition at 1 µM, cutoff=50%) for item `CCOC(=O)c1cc(-c2csc(-c3sc(Nc4ccc(C(C)C)cc4)nc3N)n2)on1`
A) label 0

Q) Kindly determine if inhibition at 1 µM recorded for `CCOC(=O)c1ccccc1-c1csc(-c2sc(Nc3ccc(N(C)C)cc3)nc2N)n1` is above or exactly 50%.
A) label 0

Q) Tell me whether inhibition at 1 µM is at least 50% here: `COc1ccc(OC)c(-c2csc(-c3sc(Nc4ccc(S(N)(=O)=O)cc4)nc3N)n2)c1`
A) label 0

Q) Evaluate `Nc1nc(Nc2ccc(S(N)(=O)=O)cc2)sc1-c1nc(-c2ccc(Cl)c([N+](=O)[O-])c2)cs1` : inhibition at 1 µM at minimum 50%?
A) label 0

Q) hey, is inhibition at 1 µM for this one >= 50%? `COc1ccc(OC)c(-c2csc(-c3sc(Nc4ccc(C(C)C)cc4)nc3N)n2)c1`
A) label 1

Q) I'd appreciate it if you could say whether `Cc1cc(-c2csc(-c3sc(Nc4ccc(C(C)C)cc4)nc3N)n2)cc(C)c1O` has inhibition at 1 µM at least equal to 50%.
A) label 1

Q) Does `CN(C)c1ccc(Nc2nc(N)c(-c3nc(-c4cccc([N+](=O)[O-])c4)cs3)s2)cc1` have a reported inhibition at 1 µM of at least 50%?
A) label 0

Q) Is inhibition at 1 µM at least 50%? Consider `CN(C)c1ccc(Nc2nc(N)c(-c3nc(-c4cc(-c5ccc(Cl)c(Cl)c5)no4)cs3)s2)cc1`
A) label 0

Q) Does the reported inhibition at 1 µM for `CC(C)c1ccc(Nc2nc(N)c(-c3nc(-c4cc(Br)c(Cl)s4)cs3)s2)cc1` fall at or above the 50% mark?
A) label 1

Q) Is it the case that `CCc1cc2c(cc1-c1csc(-c3sc(Nc4ccc(N(C)C)cc4)nc3N)n1)C(C)(C)CCC2(C)C` has inhibition at 1 µM reaching or exceeding 50%?
A) label 1

Q) Hi team, for `Nc1nc(Nc2ccc(S(N)(=O)=O)cc2)sc1-c1nc(-c2ccc(OC(=O)c3ccccc3)cc2)cs1` , is the recorded inhibition at 1 µM at or above 50%?
A) label 0

Q) Does `Cc1c(-c2csc(-c3sc(Nc4ccc(N(C)C)cc4)nc3N)n2)sc2ccccc12` have a reported inhibition at 1 µM of at least 50%?
A) label 0

Q) Could you tell me if the measured inhibition at 1 µM of `CC(C)c1ccc(Nc2nc(N)c(-c3nc(-c4c(Cl)c(Cl)nc(Cl)c4Cl)cs3)s2)cc1` reaches 50% or more?
A) label 1

Q) Check this compound for inhibition at 1 µM at or above 50%: `CC(C)c1ccc(Nc2nc(N)c(-c3nc(-c4cccc(Br)c4)cs3)s2)cc1`
A) label 0

Attribution: patent US6620828B2
